test system: IGROV-1; experiment: NCI tumour cell line growth inhibition, 48 h
The source made the active and inactive calls. No stated cut-off is given here; in the data, active = GI50 up to about 1.1 µM and inactive = higher.
# GI50 per record follows

Example entries begin here.
CC12C=C[C@]3(CC[C@@H]4[C@@](C)(CO)CCC[C@]4(C)C3CC1)C2 (stereo not given in full)	17.5 µM (inactive)
Cc1ccc(-c2nc(-c3nccc4ccccc34)oc2-c2ccccc2)cc1	> 100 µM (inactive)
COc1ccc(/C(C)=C2\CCCN(Cc3ccccc3)C2)cc1	28.2 µM (inactive)
OCc1ccc2c(c1)CC1(Cc3ccccc3C1)C2	> 10 µM (inactive)
C=C(CS(=O)(=O)c1ccccc1)C(=O)OCC	19 µM (inactive)
COC(=O)c1cc(-c2c[nH]cc2C(=O)OCc2ccccc2)cn1S(=O)(=O)c1ccc(C)cc1	> 100 µM (inactive)

## Input Let me know recorded GI50 for O=C1/C(=C/c2ccccc2Cl)COc2ccc(Br)cc21 , thanks.
## Output > 100 µM (inactive)

## Input Let me know recorded GI50 for CN1C(NCCO)=NS(=O)(=O)c2ccccc21 , thanks.
## Output > 100 µM (inactive)

## Input Let me know recorded GI50 for O=c1c2c(-c3ccccc3)onc2n(-c2ccccc2)c(=O)n1-c1ccccc1 , thanks.
## Output 22.5 µM (inactive)

## Input Let me know recorded GI50 for Clc1nc(-c2ccccc2)nc(Cl)c1Cl , thanks.
## Output 8.69 µM (inactive)

## Input Let me know recorded GI50 for CC1(C)OC2C(CCP(=O)(O)O)OC(c3nc(C(N)=O)cs3)C2O1 (stereo not given) , thanks.
## Output > 100 µM (inactive)

## Input Let me know recorded GI50 for O=C1CCC(Cc2ccc(Cl)cc2Cl)C(=O)N1 (stereo not given) , thanks.
## Output > 100 µM (inactive)

## Input Let me know recorded GI50 for CC(C)O/N=C/c1cc(NC(=S)OC(C)C)ccc1Cl , thanks.
## Output 28.2 µM (inactive)

## Input Let me know recorded GI50 for COc1ccccc1NC(=S)N/N=C/c1c(C)n(C)n(-c2ccccc2)c1=O , thanks.
## Output > 100 µM (inactive)

## Input Let me know recorded GI50 for O=C1NC2(CCCCC2)C2CCCCCC12 (stereo not given) , thanks.
## Output > 100 µM (inactive)

## Input Let me know recorded GI50 for NCCC(N)C(=O)O (stereo not given) , thanks.
## Output > 100 µM (inactive)

## Input Let me know recorded GI50 for COc1ccc(-n2c(C)nc3ccc(NC4OC(CO)C(O)C(O)C4O)cc3c2=O)cc1 (stereo not given) , thanks.
## Output > 100 µM (inactive)

## Input Let me know recorded GI50 for COc1ccc(N2C(=O)C3C=CC(n4[nH]c(=O)n(Cc5ccccc5)c4=O)CC3C2=O)cc1 (stereo not given) , thanks.
## Output > 100 µM (inactive)

## Input Let me know recorded GI50 for COC(=O)[C@@H](C)[C@H]1CC[C@@](C)(CCC2=C(C)CC3C=C(C)CCC3C2(C)C)OO1 (stereo not given in full) , thanks.
## Output 1.42 µM (inactive)

## Input Let me know recorded GI50 for CC1(C)C2CCC3(OCCO3)C1C(O)C2 (stereo not given) , thanks.
## Output > 100 µM (inactive)

## Input Let me know recorded GI50 for CC(C)(C)OC(=O)NCCNC(=O)CN(CC(=O)O)C1CCCCC1N(CC(=O)O)CC(=O)O (stereo not given) , thanks.
## Output > 100 µM (inactive)
